Entries below carry reported MIC on Staphylococcus aureus 209P JC-1.
Measured endpoint: MIC (µg/mL)

> print(dat)
                                   compound  unit.tag  result.value
1  CO/N=C(\C(=O)NC1C(=O)N2C(C(=O)O)=C(COC(=O)c3ccccc3)CSC12)c1nc(N)sc1Br (centres unmarked) [compound 4]     µg/mL          1.56
2  CO/N=C(\C(=O)NC1C(=O)N2C(C(=O)O)=C(CSc3nnnn3C)CSC12)c1nc(N)sc1Br (centres unmarked) [compound 3]     µg/mL          3.13
3  CO/N=C(\C(=O)NC1C(=O)N2C(C(=O)O)=C(CSc3nncs3)CSC12)c1nc(N)sc1Br (centres unmarked) [compound 1]     µg/mL          1.56
4  CO/N=C(\C(=O)NC1C(=O)N2C(C(=O)O)=C(CSc3nncs3)CSC12)c1nc(N)sc1Cl (centres unmarked) [compound 5]     µg/mL          3.13
5  CO/N=C(\C(=O)NC1C(=O)N2C(C(=O)O)=C(CSc3nnc(C)s3)CSC12)c1nc(N)sc1Br (centres unmarked) [compound 2]     µg/mL          3.13

Origin of values: patent US4729991A
